Please respond with reported protein stability index for every item in the list.
B1: MFF (parent)
chain: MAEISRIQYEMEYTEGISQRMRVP

- Variants of: B1
- test_summary: protein stability index of a GFP-peptide fusion (GPS, HEK-293T) (PSI 1-6); higher = more stable;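 also: lentivirally expressed fusions sorted by FACS into six bins by GFP to DsRed ratio, PSI derived from sequencing read proportions per bin multiplied by bin number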
- settings: c terminus: a fixed tail appended
Give bare numbers.

Example results:
Q8L :: 1.6
M21C :: 2.32

Answer for every listed entry: what is its protein stability index? The entries follow.
1. E15Y
2. Y13I
3. E3T
4. S18T
5. I7A

Output:
[2.03, 2.33, 2.07, 2.6, 3.22]
